// provenance: patent US20060063755A1

Let's go through some recorded Ki values for H1 histamine receptor (Bos taurus) together.
Measured Parameter: Ki (nM)

P. CC(C)(CN1CCN(C2=Nc3ccccc3Oc3ccc(O)cc32)CC1)C(=O)O [Compound 14]
Q. COc1ccc2c(c1)Oc1ccccc1C(N1CCN(CC(C)(C)C(=O)O)CC1)=N2 [Compound 32]
Prompt: // task: argmin of Ki over [ P , Q ] Give the label of your selection.
Response: P

---

target: H1 histamine receptor (Bos taurus)
Sequence (P30546 whole entry): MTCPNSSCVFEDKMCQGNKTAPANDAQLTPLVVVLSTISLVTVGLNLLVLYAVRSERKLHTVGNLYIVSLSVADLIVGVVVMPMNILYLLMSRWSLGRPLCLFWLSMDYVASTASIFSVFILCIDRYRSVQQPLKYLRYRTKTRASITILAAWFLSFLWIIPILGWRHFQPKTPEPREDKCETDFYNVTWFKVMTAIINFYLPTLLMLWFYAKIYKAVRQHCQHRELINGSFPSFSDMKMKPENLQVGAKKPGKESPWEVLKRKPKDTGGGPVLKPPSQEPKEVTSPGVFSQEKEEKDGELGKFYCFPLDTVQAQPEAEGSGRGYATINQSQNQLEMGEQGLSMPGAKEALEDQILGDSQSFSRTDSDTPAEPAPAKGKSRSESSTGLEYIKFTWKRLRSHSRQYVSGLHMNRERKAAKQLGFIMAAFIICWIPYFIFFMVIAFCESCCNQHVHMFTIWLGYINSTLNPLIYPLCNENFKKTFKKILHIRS
Measured Parameter: Ki (µM)

{"Molecule": "CC(C)(CN1CCN(C2=Nc3ccccc3Oc3ccc(Cl)cc32)CC1)C(=O)O [Compound 5]", "Target Under Test": "H1 histamine receptor (Bos taurus)", "Measured Parameter": "Ki", "Observed Measurement": 0.0239}

1. COc1ccc2c(c1)C(N1CCN(CC(C)(C)C(=O)O)CC1)=Nc1cc(Br)ccc1O2 [Compound 51]
2. CC(C)(CN1CCN(C2=Nc3ccccc3Oc3ccccc32)CC1)C(=O)O [Compound 1]
3. Cc1ccc2c(c1)Oc1ccccc1C(N1CCN(CC(C)(C)C(=O)O)CC1)=N2 [Compound 30]
Prompt: Exam item: list the entries in increasing order of Ki. Reply: labels, ordered per the request.
Response: 1, 2, 3
(1: 0.0278 µM, 2: 0.0403 µM, 3: 0.0906 µM)

---

molecular target: D2 receptors (Homo sapiens, UniProt P14416); assay: Dopamine D2 binding assay (human)
Sequence (P14416 whole entry): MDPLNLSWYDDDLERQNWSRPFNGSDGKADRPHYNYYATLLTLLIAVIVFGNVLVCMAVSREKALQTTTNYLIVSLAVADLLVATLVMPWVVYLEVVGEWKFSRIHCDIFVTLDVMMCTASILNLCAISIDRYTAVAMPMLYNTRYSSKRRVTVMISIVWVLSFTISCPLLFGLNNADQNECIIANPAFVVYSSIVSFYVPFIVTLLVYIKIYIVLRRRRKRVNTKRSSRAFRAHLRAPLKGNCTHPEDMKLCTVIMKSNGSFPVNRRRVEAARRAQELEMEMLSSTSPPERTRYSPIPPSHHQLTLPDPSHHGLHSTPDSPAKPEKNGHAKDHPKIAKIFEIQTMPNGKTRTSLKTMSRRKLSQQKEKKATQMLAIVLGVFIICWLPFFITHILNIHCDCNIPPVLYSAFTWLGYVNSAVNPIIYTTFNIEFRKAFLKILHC
Measured Parameter: Ki (nM)

{"Chemical Structure": "COc1ccc2c(c1)C(N1CCN(CC(C)(C)C(=O)O)CC1)=Nc1ccc(Br)cc1O2", "Measured Parameter": "Ki", "Uom": "nM", "Observed Measurement": 470}
{"Chemical Structure": "Cc1ccc2c(c1)Oc1ccc(C)cc1C(N1CCN(CC(C)(C)C(=O)O)CC1)=N2", "Measured Parameter": "Ki", "Uom": "nM", "Observed Measurement": 2200}
{"Chemical Structure": "CC(C)(CN1CCN(C2=Nc3ccccc3Oc3ccc(Cl)cc32)CC1)C(=O)O", "Measured Parameter": "Ki", "Uom": "nM", "Observed Measurement": 1610}

a. COc1ccc2c(c1)C(N1CCN(CC(C)(C)C(=O)O)CC1)=Nc1ccccc1O2
b. CC(C)(CN1CCN(C2=Nc3ccccc3Oc3ccccc32)CC1)C(=O)NS(C)(=O)=O
Prompt: Compare a and b by numeric Ki and name the larger one. Please reply using the label of the selected record.
Response: b

---

biological target: hERG channel (Homo sapiens); test: hERG channel current block, whole cell recording in HEK293 cells; assay type: cell-based; conditions: HEK293 cells expressing hERG
Sequence (Q12809 whole entry): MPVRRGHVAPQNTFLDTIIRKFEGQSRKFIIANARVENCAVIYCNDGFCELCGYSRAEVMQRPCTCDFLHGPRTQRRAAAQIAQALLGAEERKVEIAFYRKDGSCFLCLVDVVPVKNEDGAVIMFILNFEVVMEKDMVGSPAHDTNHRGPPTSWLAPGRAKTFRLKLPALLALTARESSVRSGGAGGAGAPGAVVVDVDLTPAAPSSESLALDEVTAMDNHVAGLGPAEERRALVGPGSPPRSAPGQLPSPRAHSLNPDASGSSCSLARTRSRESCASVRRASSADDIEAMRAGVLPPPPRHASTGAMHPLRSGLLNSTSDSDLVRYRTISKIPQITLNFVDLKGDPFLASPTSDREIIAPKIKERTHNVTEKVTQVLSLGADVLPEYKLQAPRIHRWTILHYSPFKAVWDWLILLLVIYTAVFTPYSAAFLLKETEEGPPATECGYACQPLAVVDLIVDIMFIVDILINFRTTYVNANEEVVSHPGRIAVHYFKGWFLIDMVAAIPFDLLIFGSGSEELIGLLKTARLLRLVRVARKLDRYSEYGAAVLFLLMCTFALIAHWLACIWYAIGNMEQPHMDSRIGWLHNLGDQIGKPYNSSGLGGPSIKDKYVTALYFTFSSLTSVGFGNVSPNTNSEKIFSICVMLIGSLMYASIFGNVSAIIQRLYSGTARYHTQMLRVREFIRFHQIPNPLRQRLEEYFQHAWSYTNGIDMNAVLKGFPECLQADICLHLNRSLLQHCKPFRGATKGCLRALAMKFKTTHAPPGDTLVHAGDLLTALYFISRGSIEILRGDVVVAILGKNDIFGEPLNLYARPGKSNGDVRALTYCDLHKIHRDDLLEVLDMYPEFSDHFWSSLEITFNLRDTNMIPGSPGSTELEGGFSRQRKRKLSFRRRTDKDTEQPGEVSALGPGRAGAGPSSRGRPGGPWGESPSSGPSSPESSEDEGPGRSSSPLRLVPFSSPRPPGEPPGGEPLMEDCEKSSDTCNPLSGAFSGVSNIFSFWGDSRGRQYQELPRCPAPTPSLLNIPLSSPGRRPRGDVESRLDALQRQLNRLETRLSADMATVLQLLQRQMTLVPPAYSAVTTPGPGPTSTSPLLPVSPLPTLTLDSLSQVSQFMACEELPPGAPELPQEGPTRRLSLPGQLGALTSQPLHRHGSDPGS
Measured Parameter: hERG at 10 micromolar (% blocking of the hERG channel) (%)
Use % as the unit, but write only the number.

Prompt: Which hERG at 10 micromolar (% blocking of the hERG channel) value belongs to CC(C)(CCN1CCN(C2=Nc3ccccc3Oc3ccc(Cl)cc32)CC1)C(=O)O ?
Response: 27

Prompt: Looking for the measured hERG at 10 micromolar (% blocking of the hERG channel) of Cc1ccc2c(c1)C(N1CCN(CC(C)(C)C(=O)O)CC1)=Nc1cc(Br)ccc1O2 , can you help?
Response: 45.00

Prompt: So what's the measured hERG at 10 micromolar (% blocking of the hERG channel) for this one? CC(C)(CN1CCN(C2=Nc3ccccc3Oc3ccc(O)cc32)CC1)C(=O)O
Response: 0.30

Prompt: Using the record for COc1ccc2c(c1)N=C(N1CCN(CC(C)(C)C(=O)O)CC1)c1ccc(OC)cc1O2 , report its hERG at 10 micromolar (% blocking of the hERG channel).
Response: 5.80
